target: UniProt P22607; conditions: Compound concentration 20.0 uM, Protein concentration 2.0 uM, Result type QC Liability
Sequence (P22607 23-806 limits assumed): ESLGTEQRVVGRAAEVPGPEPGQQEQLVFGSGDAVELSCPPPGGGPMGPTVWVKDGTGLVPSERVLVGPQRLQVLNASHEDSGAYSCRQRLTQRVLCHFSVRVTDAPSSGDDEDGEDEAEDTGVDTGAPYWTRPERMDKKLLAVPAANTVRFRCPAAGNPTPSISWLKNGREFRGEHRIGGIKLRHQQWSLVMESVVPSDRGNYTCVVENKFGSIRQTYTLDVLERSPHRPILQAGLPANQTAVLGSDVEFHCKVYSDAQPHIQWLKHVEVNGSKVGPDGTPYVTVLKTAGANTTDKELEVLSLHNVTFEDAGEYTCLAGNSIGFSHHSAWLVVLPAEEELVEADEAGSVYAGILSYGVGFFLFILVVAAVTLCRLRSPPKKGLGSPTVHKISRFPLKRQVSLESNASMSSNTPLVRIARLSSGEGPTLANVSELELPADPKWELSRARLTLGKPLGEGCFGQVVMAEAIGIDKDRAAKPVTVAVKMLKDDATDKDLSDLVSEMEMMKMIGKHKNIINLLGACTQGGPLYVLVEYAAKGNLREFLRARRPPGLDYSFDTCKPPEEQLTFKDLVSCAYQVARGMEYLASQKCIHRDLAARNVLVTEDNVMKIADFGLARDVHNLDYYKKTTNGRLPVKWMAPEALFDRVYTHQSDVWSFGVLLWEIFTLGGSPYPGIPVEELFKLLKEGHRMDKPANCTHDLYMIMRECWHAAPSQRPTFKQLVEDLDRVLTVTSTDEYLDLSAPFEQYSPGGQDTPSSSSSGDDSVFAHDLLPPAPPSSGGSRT
Description: Thermal Shift Assay. Domain: start/stop: P449-E759

>  <SMILES_STRUCTURE>
C[C@H](CCC(=O)O)[C@H]1CC[C@H]2[C@@H]3CC[C@@H]4C[C@H](O)CC[C@]4(C)[C@H]3CC[C@]12C

>  <ΔTm [°C]>
-0.33

$$$$
>  <SMILES_STRUCTURE>
COc1ccc(-c2csc(NC(=O)[C@H]3CCCCN3S(=O)(=O)c3ccc(C)cc3)n2)cc1

>  <ΔTm [°C]>
0.16

$$$$
>  <SMILES_STRUCTURE>
Cc1[nH]nc(C(F)(F)F)c1Cc1sc2c(c1C(=O)N1C[C@](C)(O)CO1)c(=O)n(C)c(=O)n2C(C)C

>  <ΔTm [°C]>
0.52

$$$$
>  <SMILES_STRUCTURE>
c1ccc2c(c1)SCc1c-2[nH]c2ccccc12

>  <ΔTm [°C]>
0.81

$$$$
>  <SMILES_STRUCTURE>
CC(C)(C)c1cc(NC(=O)c2csc(Nc3ccc(Cl)cc3)n2)no1

>  <ΔTm [°C]>
1.46

$$$$
>  <SMILES_STRUCTURE>
O=C(Nc1snnc1C(=O)Nc1ccc(N2CCCC2)cc1)c1cncc(C(F)(F)F)c1

>  <ΔTm [°C]>
0.45

$$$$
>  <SMILES_STRUCTURE>
CC(C)C[C@H](NC(=O)[C@@H](O)[C@H](N)Cc1ccccc1)C(=O)O

>  <ΔTm [°C]>
0.78

$$$$
>  <SMILES_STRUCTURE>
CCC(=O)N[C@@H]1CC[C@H](C(=O)N(C)c2ccc(-c3nc4ccccc4o3)cc2)C1

>  <ΔTm [°C]>
0.71

$$$$
>  <SMILES_STRUCTURE>
CNC(=O)c1ccc2c(c1)ncn2-c1ccc(CC(=O)OC(C)(C)C)cc1

>  <ΔTm [°C]>
4.13

$$$$
>  <SMILES_STRUCTURE>
CCn1ccc(Nc2ncc3c(n2)-c2c(nn(C)c2-c2ccc(-c4cnn(C)c4)cc2Cl)CC3)n1

>  <ΔTm [°C]>
2.93

$$$$
>  <SMILES_STRUCTURE>
CCOC(=O)c1cc2cc(-c3cc(C(=O)NCc4ccc(C(=O)O)cc4)nn3C)ccc2[nH]1

>  <ΔTm [°C]>
0.83

$$$$
>  <SMILES_STRUCTURE>
CCCCc1oc2ccccc2c1C(=O)c1cc(I)c(OCCN(CC)CC)c(I)c1

>  <ΔTm [°C]>
0.79

$$$$
>  <SMILES_STRUCTURE>
CS(=O)(=O)NC(=O)CCC/C=C\C[C@H]1C(=O)C[C@@H](O)[C@@H]1/C=C/[C@@H](O)COc1ccccc1

>  <ΔTm [°C]>
0.49

$$$$
>  <SMILES_STRUCTURE>
Cc1cc2c(-c3ccco3)cnc(N[C@@H]3CCN(C)C[C@H]3C(=O)NC3CCCCC3)c2[nH]c1=O

>  <ΔTm [°C]>
0.65

$$$$
>  <SMILES_STRUCTURE>
CCNC1=N[C@@H]2[C@@H](O)[C@H](O)[C@@H](CO)O[C@@H]2S1

>  <ΔTm [°C]>
0.73

$$$$
>  <SMILES_STRUCTURE>
CC(=O)Oc1ccc2c(c1)[C@@]1(C)CCC[C@](C)(C(=O)OC(=O)[C@@]3(C)CCC[C@]4(C)c5cc(OC(C)=O)ccc5CC[C@@H]34)[C@@H]1CC2

>  <ΔTm [°C]>
0.1

$$$$
>  <SMILES_STRUCTURE>
O=C1CCCN1CCNc1nc(Nc2ccc(Cl)c(Cl)c2)ncc1C(F)(F)F

>  <ΔTm [°C]>
4.63

$$$$
>  <SMILES_STRUCTURE>
O=C(NCCS(=O)(=O)c1ccc(C(F)(F)F)cn1)c1ccc(Cl)cc1

>  <ΔTm [°C]>
0.38

$$$$
>  <SMILES_STRUCTURE>
COc1cc(-c2cn[nH]c2)ccc1C(=O)Nc1ccc2c(c1)CCNCC2

>  <ΔTm [°C]>
0.93

$$$$
>  <SMILES_STRUCTURE>
Cc1cc2c(-c3ccco3)cnc(N[C@H]3CCN(C)C[C@@H]3C(=O)NC3CCCCC3)c2[nH]c1=O

>  <ΔTm [°C]>
1

$$$$
>  <SMILES_STRUCTURE>
COc1ccc(S(=O)(=O)N2CCOCC2)cc1Nc1ccc2c(n1)N(C1CCOCC1)[C@H](C)C(=O)N2C

>  <ΔTm [°C]>
0.08

$$$$
>  <SMILES_STRUCTURE>
Cc1cc(OCc2nc3ccccc3s2)ccc1NC(=O)Nc1ccc(Cl)c(Cl)c1

>  <ΔTm [°C]>
0.81

$$$$
>  <SMILES_STRUCTURE>
Cc1cc(C)nc(Nc2ncc(C(=O)NCCc3c(C)[nH]c4ccccc34)cn2)c1

>  <ΔTm [°C]>
0.85

$$$$
>  <SMILES_STRUCTURE>
N=C(N)NCCC[C@H](NC(=O)C(c1ccccc1)c1ccccc1)C(=O)NCc1ccc(CNC(N)=O)cc1

>  <ΔTm [°C]>
0.81

$$$$
>  <SMILES_STRUCTURE>
CC(C)C(=O)N[C@@H]1CCN(C(=O)Nc2nc3c(s2)-c2nc(-c4ccccc4Cl)ncc2CC3)C1

>  <ΔTm [°C]>
3.87

$$$$
>  <SMILES_STRUCTURE>
O=C(Nc1ccc(N2CCC(C(=O)N3CCOCC3)CC2)cc1)c1cnc(Oc2ccccc2)nc1

>  <ΔTm [°C]>
0.5

$$$$
>  <SMILES_STRUCTURE>
O=C1COc2cc(C(=O)N(Cc3ccc(C(=O)Nc4ccncn4)cc3)C3CC3)ccc2N1

>  <ΔTm [°C]>
0.74

$$$$
>  <SMILES_STRUCTURE>
CC(C)(C)C(=O)NCc1ccc(Cl)c(C(=O)Nc2ncc[nH]2)c1

>  <ΔTm [°C]>
0.47

$$$$

###

target: Fibroblast growth factor receptor 3 (Homo sapiens); settings: Compound concentration 20.0 uM, Protein concentration 2.0 uM, Result type QC Liability
OBSERVABLE: ΔTm (°C)

>  <COMPOUND>
NCC1CCC(CNc2nc(NCc3ccccc3OC(F)(F)F)ncc2[N+](=O)[O-])CC1 (stereo not given)

>  <VAL>
0.5

$$$$
>  <COMPOUND>
O=C1CN(c2ccccc2F)C(NCCN2CCOCC2)=C1c1nc2cc(Br)ccc2c(=O)[nH]1

>  <VAL>
0.53

$$$$
>  <COMPOUND>
C[C@@H]1CN(CC(=O)N2CC(C)(C)c3nc(CO)c(Cc4ccc(F)cc4)cc32)[C@@H](CN2CCOC[C@H]2C)CN1

>  <VAL>
0.45

$$$$
>  <COMPOUND>
C=CC(=O)Nc1cccc(C)c1Nc1ncc2cc(-c3c(Cl)c(OC)cc(OC)c3Cl)ccc2n1

>  <VAL>
1.71

$$$$
>  <COMPOUND>
CCN(CC)CCO[C@H]1CC[C@@]2(C)C(=CC[C@@H]3[C@@H]2CC[C@]2(C)C(=O)CC[C@@H]32)C1

>  <VAL>
0.44

$$$$
>  <COMPOUND>
CCN(C)S(=O)(=O)Nc1cccc(-c2ccc3c(NC(=O)C4CC4)n[nH]c3c2)c1

>  <VAL>
2.38

$$$$
>  <COMPOUND>
CC(C)Nc1ncnc2cc(OCc3cccc([S@@](C)(=N)=O)c3)c(Br)cc12

>  <VAL>
1.64

$$$$
>  <COMPOUND>
CN1C(=O)c2ccccc2N(C)c2nc(Nc3cnn(C4CCNCC4)c3)ncc21

>  <VAL>
6.58

$$$$
>  <COMPOUND>
Cc1cc(-c2ccnc(Nc3cnn(C)c3)n2)ccc1CNC(=O)N1CC(OC(C)C)C1

>  <VAL>
2.34

$$$$
>  <COMPOUND>
O=C(CNC(=O)c1ccc(-c2ccccc2)cc1)NC1CCCc2ccccc21 (stereo not given)

>  <VAL>
0.59

$$$$

###

Below, each entry is listed with its recorded ΔTm.
biological target: Fibroblast growth factor receptor 3 (Homo sapiens); conditions: Compound concentration 20.0 uM, Protein concentration 2.0 uM, Result type QC Liability

>  <COMPOUND>
O=C(O)CCCc1cc2cc(Cl)ccc2n1S(=O)(=O)c1ccc2ncsc2c1

>  <MEASURED_ON>
Fibroblast growth factor receptor 3 (Homo sapiens)

>  <ΔTm>
0.8 °C

$$$$
>  <COMPOUND>
CN[C@@H](C)C(=O)N[C@H](C(=O)N1CCC[C@H]1C(=O)N[C@@H]1CCCc2ccccc21)C1CCCCC1

>  <MEASURED_ON>
Fibroblast growth factor receptor 3 (Homo sapiens)

>  <ΔTm>
0.75 °C

$$$$
>  <COMPOUND>
CC1(C)Cc2nc(C3CCCC3)c([C@@H](F)c3ccc(C(F)(F)F)cc3)c(C3CCCCC3)c2[C@@H](O)C1

>  <MEASURED_ON>
Fibroblast growth factor receptor 3 (Homo sapiens)

>  <ΔTm>
1.5 °C

$$$$
>  <COMPOUND>
CN(C)CC#Cc1ccc2[nH]c3c(c2c1)-c1nc(N)ncc1CCC3

>  <MEASURED_ON>
Fibroblast growth factor receptor 3 (Homo sapiens)

>  <ΔTm>
3.51 °C

$$$$
>  <COMPOUND>
C[C@]12CC[C@@H]3c4ccc(C(N)=O)cc4CC[C@H]3[C@@H]1CC=C2c1cncc(F)c1

>  <MEASURED_ON>
Fibroblast growth factor receptor 3 (Homo sapiens)

>  <ΔTm>
0.92 °C

$$$$
>  <COMPOUND>
CC/C(=C(\c1ccccc1)c1ccc(OCCN(C)C)cc1)c1ccccc1

>  <MEASURED_ON>
Fibroblast growth factor receptor 3 (Homo sapiens)

>  <ΔTm>
0.3 °C

$$$$
>  <COMPOUND>
CC1(C)C(=O)N([C@H]2CCc3c(O)cccc32)c2nc(Nc3cccc(CN4CCCC4)c3)ncc21

>  <MEASURED_ON>
Fibroblast growth factor receptor 3 (Homo sapiens)

>  <ΔTm>
9.18 °C

$$$$
>  <COMPOUND>
Cc1nc2cccnc2n2c(-c3cc([C@@]4(O)CCCOC4)ccc3Cl)nnc12

>  <MEASURED_ON>
Fibroblast growth factor receptor 3 (Homo sapiens)

>  <ΔTm>
0.59 °C

$$$$
>  <COMPOUND>
C[C@H](CCOc1cccc(CC(=O)O)c1)N(Cc1cccc(C(F)(F)F)c1Cl)CC(c1ccccc1)c1ccccc1

>  <MEASURED_ON>
Fibroblast growth factor receptor 3 (Homo sapiens)

>  <ΔTm>
2.11 °C

$$$$
>  <COMPOUND>
Cc1nn(-c2nc3ccc(Cl)c(Cl)c3[nH]2)c(O)c1C1OC(=O)c2ccccc21 (configuration not stated)

>  <MEASURED_ON>
Fibroblast growth factor receptor 3 (Homo sapiens)

>  <ΔTm>
0.7 °C

$$$$
>  <COMPOUND>
CC(C)(O)[C@H](F)CN1Cc2cc(NC(=O)c3cnn4cccnc34)c(N3CCOCC3)cc2C1=O

>  <MEASURED_ON>
Fibroblast growth factor receptor 3 (Homo sapiens)

>  <ΔTm>
2.76 °C

$$$$
>  <COMPOUND>
COC(=O)Nc1nc2c(s1)-c1c(c(-c3cccnc3)nn1-c1ccc(C3(N(C)C)CC3)cc1)CC2

>  <MEASURED_ON>
Fibroblast growth factor receptor 3 (Homo sapiens)

>  <ΔTm>
1.4 °C

$$$$
